These entries and their values trace back to patent US20040147531A1.

- systemUnderTest: Aβ (Homo sapiens, UniProt P05067)
- Construct: Aβ peptide: Aβ (1-40) 95% purity (American Peptide Company, Inc, Sunnyvale, Calif. USA)
- Sequence (P05067 672-711 limits assumed): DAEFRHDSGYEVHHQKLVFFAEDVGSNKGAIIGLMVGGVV
- experimentNotes: electron microscopy (EM) assay, inhibition of fibrillogenesis
- Type: biochemical
- Set-up: key: “+” = active; “−” = inactive; “pr” = promoting
- assayConditions: soluble Aβ
- From the text: Test compounds were purchased from commercial sources or synthesized and screened by thioflavin T fluorescent assay (“ThT assay”). Alternatively, one could screen test compounds by circular dichroism (“CD”), electron microscopy (“EM”), or mass spectroscopy (“MS”) assays. The MS assay gives data on the ability of compounds to bind to an amyloid protein, whereas the ThT, EM, and CD assays give data on inhibition of fibrillogenesis. […]
observationType: EM

>>> recordedmeasurement("N=C(N)c1ccc(-c2cc3ccc(C(=N)N)cc3[nH]2)cc1 [Compound 28]")
"+"
>>> recordedmeasurement("N=C(N)c1ccc(OCc2ccc(COc3ccc(C(=N)N)cc3)cc2)cc1 [Compound 26]")
"−"
>>> recordedmeasurement("N=C(N)c1ccc(OCc2cccc(COc3ccc(C(=N)N)cc3)c2)cc1 [Compound 24]")
"+"
>>> recordedmeasurement("N=C(N)c1ccc(-c2cc(-c3cccc(C(=N)N)c3)no2)cc1 [Compound 83]")
"+"

The compound N=C(N)c1ccc2nc(-c3ccc(CCc4ccc(-c5nc6ccc(C(=N)N)cc6[nH]5)s4)cc3)[nH]c2c1 [Compound 116] , when measured on Aβ (Homo sapiens, UniProt P05067), yielded EM of +
